- Test system: Dorea formicigenerans;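 further: lowest concentration where monotonic median growth AUC falls below 0.75 of drug-free control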
- ASSAY NOTES: IC25 growth inhibition; higher = less potent
Here the recorded IC25 growth inhibition is given for each entry.

>  <COMPOUND>
CC(=O)N1CCN(c2ccc(OCC3COC(Cn4ccnc4)(c4ccc(Cl)cc4Cl)O3)cc2)CC1 (stereo not given)

>  <IC25 growth inhibition>
≤ 40 µM

$$$$
>  <COMPOUND>
CN(C)C(=O)C(CCN1CCC(O)(c2ccc(Cl)cc2)CC1)(c1ccccc1)c1ccccc1 [Loperamide]

>  <IC25 growth inhibition>
≤ 80 µM

$$$$
>  <COMPOUND>
C[C@H]1O[C@H](O[C@H]2[C@H](O)[C@@H](O)[C@@H](O[C@H]3[C@H](O)[C@@H](O)C(O)O[C@@H]3CO)O[C@@H]2CO)[C@H](O)[C@@H](O)[C@@H]1N[C@H]1C=C(CO)[C@@H](O)[C@H](O)[C@H]1O (stereo not given in full)

>  <IC25 growth inhibition>
> 160 µM

$$$$
>  <COMPOUND>
COc1cccc2c1C(=O)c1c(O)c3c(c(O)c1C2=O)C[C@@](O)(C(=O)CO)C[C@@H]3O[C@H]1C[C@H](N)[C@H](O)[C@H](C)O1

>  <IC25 growth inhibition>
≤ 20 µM

$$$$
>  <COMPOUND>
CCOC1O[C@H]([C@@H](COCc2ccccc2)OCc2ccccc2)[C@H](OCc2ccccc2)[C@H]1O (stereo not given in full) [Tribenoside]

>  <IC25 growth inhibition>
> 20 µM

$$$$
>  <COMPOUND>
CNCCCC1c2ccccc2C=Cc2ccccc21

>  <IC25 growth inhibition>
> 160 µM

$$$$
>  <COMPOUND>
O=C1NCCN1CCN1CCC(c2cn(-c3ccc(F)cc3)c3ccc(Cl)cc23)CC1

>  <IC25 growth inhibition>
≤ 20 µM

$$$$
>  <COMPOUND>
O=C(Nc1ccc([N+](=O)[O-])cc1Cl)c1cc(Cl)ccc1O [Niclosamide]

>  <IC25 growth inhibition>
≤ 20 µM

$$$$
>  <COMPOUND>
CN(N=O)C(=O)N[C@@H](C=O)[C@@H](O)[C@H](O)[C@H](O)CO

>  <IC25 growth inhibition>
> 160 µM

$$$$
>  <COMPOUND>
COCCOC(=O)C1=C(C)NC(C)=C(C(=O)OC/C=C/c2ccccc2)C1c1cccc([N+](=O)[O-])c1 (stereo not given)

>  <IC25 growth inhibition>
> 10 µM

$$$$
